- system: P300 (Homo sapiens, UniProt Q09472)
- Sequence (Q09472 whole entry): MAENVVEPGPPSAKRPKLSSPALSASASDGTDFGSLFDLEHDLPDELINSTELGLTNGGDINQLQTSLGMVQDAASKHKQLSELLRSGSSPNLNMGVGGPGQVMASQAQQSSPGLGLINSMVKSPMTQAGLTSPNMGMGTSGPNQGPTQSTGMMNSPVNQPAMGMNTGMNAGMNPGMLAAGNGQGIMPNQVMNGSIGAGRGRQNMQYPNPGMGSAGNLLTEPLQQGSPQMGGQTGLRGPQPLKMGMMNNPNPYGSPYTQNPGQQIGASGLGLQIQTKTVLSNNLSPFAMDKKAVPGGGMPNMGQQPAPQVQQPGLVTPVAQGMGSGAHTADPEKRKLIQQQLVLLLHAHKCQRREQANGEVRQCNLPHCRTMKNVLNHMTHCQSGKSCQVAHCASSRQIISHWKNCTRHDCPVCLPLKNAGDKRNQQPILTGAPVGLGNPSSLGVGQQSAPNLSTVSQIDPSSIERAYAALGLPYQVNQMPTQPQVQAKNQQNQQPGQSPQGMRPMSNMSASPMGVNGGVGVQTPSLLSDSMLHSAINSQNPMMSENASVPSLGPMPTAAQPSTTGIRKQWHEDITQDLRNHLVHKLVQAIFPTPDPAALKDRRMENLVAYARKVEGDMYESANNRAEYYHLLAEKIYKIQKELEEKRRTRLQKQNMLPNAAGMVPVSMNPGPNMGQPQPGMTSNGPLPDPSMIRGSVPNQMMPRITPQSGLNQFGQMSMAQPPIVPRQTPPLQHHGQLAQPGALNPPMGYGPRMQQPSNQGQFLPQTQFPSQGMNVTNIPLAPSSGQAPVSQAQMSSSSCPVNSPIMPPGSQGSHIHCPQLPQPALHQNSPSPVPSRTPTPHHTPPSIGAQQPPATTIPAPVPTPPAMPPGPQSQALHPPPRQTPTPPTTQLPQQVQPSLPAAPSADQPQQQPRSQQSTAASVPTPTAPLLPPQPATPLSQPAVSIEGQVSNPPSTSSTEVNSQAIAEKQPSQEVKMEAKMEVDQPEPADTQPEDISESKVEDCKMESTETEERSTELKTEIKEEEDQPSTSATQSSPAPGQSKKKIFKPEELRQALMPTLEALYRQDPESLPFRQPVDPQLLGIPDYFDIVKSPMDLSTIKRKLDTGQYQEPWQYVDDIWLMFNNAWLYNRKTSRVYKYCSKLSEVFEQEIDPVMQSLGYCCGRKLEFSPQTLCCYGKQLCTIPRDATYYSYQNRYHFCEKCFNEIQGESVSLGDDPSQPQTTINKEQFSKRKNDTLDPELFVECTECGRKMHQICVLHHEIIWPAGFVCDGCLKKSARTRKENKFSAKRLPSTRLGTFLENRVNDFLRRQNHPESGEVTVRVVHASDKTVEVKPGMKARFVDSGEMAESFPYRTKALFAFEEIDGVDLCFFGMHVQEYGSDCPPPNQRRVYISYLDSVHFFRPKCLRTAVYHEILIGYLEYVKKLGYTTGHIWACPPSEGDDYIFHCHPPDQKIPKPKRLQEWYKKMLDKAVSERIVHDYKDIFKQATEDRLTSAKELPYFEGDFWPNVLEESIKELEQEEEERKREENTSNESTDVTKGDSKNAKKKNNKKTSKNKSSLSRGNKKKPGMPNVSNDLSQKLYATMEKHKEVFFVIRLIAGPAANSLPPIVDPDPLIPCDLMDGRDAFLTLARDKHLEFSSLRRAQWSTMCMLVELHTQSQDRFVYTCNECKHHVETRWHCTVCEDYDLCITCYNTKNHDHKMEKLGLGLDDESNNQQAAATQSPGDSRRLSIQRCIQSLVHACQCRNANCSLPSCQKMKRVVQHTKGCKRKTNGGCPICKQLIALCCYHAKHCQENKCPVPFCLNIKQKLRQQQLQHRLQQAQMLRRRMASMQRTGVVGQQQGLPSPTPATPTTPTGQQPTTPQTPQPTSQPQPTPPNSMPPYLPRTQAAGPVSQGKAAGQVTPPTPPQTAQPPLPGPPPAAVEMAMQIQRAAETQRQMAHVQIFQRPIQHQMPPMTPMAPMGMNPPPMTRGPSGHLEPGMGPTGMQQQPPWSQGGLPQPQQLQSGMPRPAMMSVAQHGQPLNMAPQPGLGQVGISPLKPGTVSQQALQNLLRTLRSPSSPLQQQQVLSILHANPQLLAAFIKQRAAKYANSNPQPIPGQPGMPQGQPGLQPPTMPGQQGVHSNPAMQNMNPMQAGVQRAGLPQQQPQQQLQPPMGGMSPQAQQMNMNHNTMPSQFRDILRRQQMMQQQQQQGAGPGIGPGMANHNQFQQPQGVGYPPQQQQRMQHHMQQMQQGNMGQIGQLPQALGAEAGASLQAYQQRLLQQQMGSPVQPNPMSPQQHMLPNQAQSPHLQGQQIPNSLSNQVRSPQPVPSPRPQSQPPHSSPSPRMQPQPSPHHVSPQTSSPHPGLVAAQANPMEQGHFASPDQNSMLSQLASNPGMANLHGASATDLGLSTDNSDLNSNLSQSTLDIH
- protocolDescription: Immunoblotting of P300 protein levels in LNCaP or 22RV1 cells
- Type: cell-based
- Set-up: LNCaP or 22RV1 cells that express CBP/P300 proteins were treated with GNE-781 or the bivalent compounds; endogenous in cells; host or cells: LNCaP (clone FGC) or 22RV1 cells
- reportedConditions: percentage of inhibition of p300 at 10 nM (Table 3); read-out: Degradation (10 nM)
Readings of inhibition at 0.01 µM for the listed compounds

Completed entries (count: 4):
compound	inhibition at 0.01 µM
CC(=O)N1CCc2c(c(N3CCCc4cc(-c5cnn(C)c5)c(C(F)F)cc43)nn2C2CCN(C(=O)CCCCNc3cccc4nnn(C5CCC(=O)NC5=O)c(=O)c34)CC2)C1 (centres unmarked)	50 to 80%
CNC(=O)N1CCc2c(c(N3CCCc4cc(-c5cnn(C)c5)c(C(F)F)cc43)nn2C2CCN(C(=O)COCCOCCOCC(=O)N[C@H](C(=O)N3C[C@H](O)C[C@H]3C(=O)NCc3ccc(-c4scnc4C)cc3)C(C)(C)C)CC2)C1	< 20%
CNC(=O)N1CCc2c(c(N3CCCc4cc(-c5cnn(C)c5)c(C(F)F)cc43)nn2C2CCN(C(=O)CCCCCCCC(=O)N[C@H](C(=O)N3C[C@H](O)C[C@H]3C(=O)NCc3ccc(-c4scnc4C)cc3)C(C)(C)C)CC2)C1	< 20%
CNC(=O)N1CCc2c(c(N3CCCc4cc(-c5cnn(C)c5)c(C(F)F)cc43)nn2C2CCN(C(=O)COCCOCC(=O)N[C@H](C(=O)N3C[C@H](O)C[C@H]3C(=O)NCc3ccc(-c4scnc4C)cc3)C(C)(C)C)CC2)C1	< 20%

// below: inhibition at 0.01 µM requested for another compound
// Input: CNC(=O)N1CCc2c(c(N3CCCc4cc(-c5cnn(C)c5)c(C(F)F)cc43)nn2C2CCN(C(=O)CCCCC#Cc3cccc4c3C(=O)N(C3CCC(=O)NC3=O)C4=O)CC2)C1 (centres unmarked) . Output its inhibition at 0.01 µM only.
20 to 50%

###

- system: P300 (Homo sapiens, UniProt Q09472)
- protocolDescription: Immunoblotting of P300 protein levels in LNCaP or 22RV1 cells
- Assay type: cell-based
- Set-up: LNCaP or 22RV1 cells that express CBP/P300 proteins were treated with GNE-781 or the bivalent compounds; endogenous in cells; host or cells: LNCaP (clone FGC) or 22RV1 cells
- reportedConditions: percentage of inhibition of p300 at 10 nM (Table 3); read-out: Degradation (10 nM)
Measured inhibition at 0.01 µM of individual entries

Quickly give me recorded inhibition at 0.01 µM for CC(=O)N1CCc2c(c(N3CCCc4cc(-c5cnn(C)c5)c(C(F)F)cc43)nn2C2CCN(C(=O)CN3CCN(CCc4cccc5c4C(=O)N(C4CCC(=O)NC4=O)C5=O)CC3)CC2)C1 (centres unmarked) [P-169]
< 20%

For the molecule CNC(=O)N1CCc2c(c(N3CCCc4cc(-c5cnn(C)c5)c(C(F)F)cc43)nn2C2CCN(C(=O)CCCCCOc3cccc4c3CN(C3CCC(=O)NC3=O)C4=O)CC2)C1 (centres unmarked) [P-088] , give its measured inhibition at 0.01 µM value.
> 80%

Output measured inhibition at 0.01 µM for this item: CC(=O)N1CCc2c(c(N3CCCc4cc(-c5cnn(C)c5)c(C(F)F)cc43)nn2C2CCN(C(=O)CCCCCCCNc3ccc4c(c3)n(C)c(=O)n4C3CCC(=O)NC3=O)CC2)C1 (centres unmarked) [P-161]
> 80%

Look up inhibition at 0.01 µM of CC(=O)N1CCc2c(c(N3CCCc4cc(-c5cnn(C)c5)c(C(F)F)cc43)nn2C2CCN(CCCCCCOc3cccc4c3C(=O)N(C3CCC(=O)NC3=O)C4=O)CC2)C1 (centres unmarked) [P-113] and report it.
> 80%

Provide one value: measured inhibition at 0.01 µM of CNC(=O)N1CCc2c(c(N3CCCc4cc(-c5cnn(C)c5)c(C(F)F)cc43)nn2C2CCN(C(=O)CN3CCC(CNc4cccc5c4C(=O)N(C4CCC(=O)NC4=O)C5=O)CC3)CC2)C1 (centres unmarked) [P-102]
50 to 80%

State its inhibition at 0.01 µM: CC(=O)N1CCc2c(c(N3CCCc4cc(-c5cnn(C)c5)c(C(F)F)cc43)nn2C2CCN(C(=O)CCCCCOc3cccc4c3CN(C3CCC(=O)NC3=O)C4=O)CC2)C1 (centres unmarked) [P-121]
> 80%

// Input: CC(=O)N1CCc2c(c(N3CCCc4cc(-c5cnn(C)c5)c(C(F)F)cc43)nn2C2CCN(C(=O)CCCCC#Cc3cccc4c3CN(C3CCC(=O)NC3=O)C4=O)CC2)C1 (centres unmarked) [P-122] . Output its inhibition at 0.01 µM only.
> 80%
